# system.under.test: recombinant pro-PrP^23-253 (human, UniProt P04156 23-253)
# test.protocol: in vitro pull-down with mAb 8H4 and protein G beads, anti-GST immunoblot
observation.type: binding result

binder="GST-tagged FLNa domain 20 (other, domain: domain 20) VKVTGEGRVKESITRRRRAPSVANVGSHCDLSLKIPEISIQDMTAQVTSPSGKTHEAEIVEGENHTYCIRFVPAEMGTHTVSVKYKGQHVPGSPFQFTV" assay_value=binds
binder="GST-tagged FLNa domain 18 (other, domain: domain 18) RVTGDDSMRMSHLKVGSAADIPINISETDLSLLTATVVPPSGREEPCLLKRLRNGHVGISFVPKETGEHLVHVKKNGQHVASSPIPVVI" assay_value=binds
binder="GST-tagged FLNa domain 23 (other, domain: domain 23) GHGGDPGLVSAYGAGLEGGVTGNPAEFVVNTSNAGAGALSVTIDGPSKVKMDCQECPEGYRVTYTPMAPGSYLISIKYGGPYHIGGSPFKAKV" assay_value=binds
